// provenance: patent US9630947B2

- Experimental Target: purified STEP46 enzyme (Homo sapiens, UniProt P54829)
- Sequence (P54829 1-565): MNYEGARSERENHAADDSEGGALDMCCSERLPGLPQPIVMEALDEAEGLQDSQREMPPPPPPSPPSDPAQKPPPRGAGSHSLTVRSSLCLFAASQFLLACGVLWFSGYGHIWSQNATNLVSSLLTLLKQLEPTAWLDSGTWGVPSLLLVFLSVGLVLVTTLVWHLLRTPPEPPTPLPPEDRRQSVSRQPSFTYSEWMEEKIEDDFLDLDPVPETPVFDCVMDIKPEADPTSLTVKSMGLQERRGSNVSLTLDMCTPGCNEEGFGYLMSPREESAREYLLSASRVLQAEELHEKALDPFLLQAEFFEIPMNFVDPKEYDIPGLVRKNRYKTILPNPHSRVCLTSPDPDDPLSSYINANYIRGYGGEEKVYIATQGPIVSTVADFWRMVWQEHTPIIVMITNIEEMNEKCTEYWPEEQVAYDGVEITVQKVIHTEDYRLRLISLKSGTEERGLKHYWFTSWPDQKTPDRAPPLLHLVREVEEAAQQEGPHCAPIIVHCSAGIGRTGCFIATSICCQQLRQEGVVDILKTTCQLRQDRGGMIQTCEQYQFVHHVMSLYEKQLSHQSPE
- Assay Info: STEP46 biochemical assay (DiFMUP fluorescence phosphatase assay)
- Measurement Setup: DiFMUP 10 μM, read-out: STEP IC50
pIC50: −log10 of the molar value.
Attribute Measured: pIC50

* CNc1nc(-c2cccnc2)nc2c(C)cc(-c3cccc(C#N)c3)cc12 | > 6.00
* FC(F)Oc1cccc(Nc2nc(-c3cncnc3)nc3ccccc23)c1 | < 5.00
* CN(C)c1ccc2nc(-c3ccnnc3)nc(Nc3cccc(OC(F)F)c3)c2c1 | 5.00 to 6.00
* CC(=O)c1ccc(-c2ccc3nc(-c4cccnc4)nc(N)c3c2)cc1 | < 5.00
* COc1ccc(Cl)c(Nc2nc(-c3cccnc3)nc3ccc(OC)cc23)c1 | 5.00 to 6.00
* CCOc1ccc2nc(-c3cccnc3)nc(Nc3nc(-c4cccc(F)c4F)cs3)c2c1 | 5.00 to 6.00
* CNc1nc(-c2cccnc2)nc2ccc(-c3cccc(OC)c3)cc12 | 5.00 to 6.00
* O=[N+]([O-])c1ccccc1-c1ccc2nc(-c3cccnc3)nc(Nc3ccc(F)c(Cl)c3)c2c1 | 5.00 to 6.00
* COc1ccc2nc(-c3cccnc3)nc(Nc3ccc4c(c3)CCC4)c2c1 | < 5.00
* CCOc1ccc2nc(-c3cccnc3)nc(Nc3nc(-c4ccc(F)c(F)c4)cs3)c2c1 | > 6.00
* FC(F)Oc1cccc(Nc2nc(-c3cnccn3)nc3ccccc23)c1 | 5.00 to 6.00
* NC(=O)c1cccc(-c2ccc3c(Nc4ccc(F)c(Cl)c4)nc(-c4cccnc4)nc3c2)c1 | > 6.00
* CNc1nc(-c2cccnc2)nc2ccc(-c3ccc4c(cnn4C)c3)cc12 | 5.00 to 6.00
* CNc1nc(-c2cccnc2)nc2cc(-c3ccccc3F)c(C)cc12 | < 5.00
* Fc1ccc(Nc2nc(-c3cnccn3)nc3ccccc23)cc1Cl | 5.00 to 6.00
* COc1ccc2nc(-c3cccnc3)nc(Nc3ccc4ccc(=O)oc4c3)c2c1 | 5.00 to 6.00
* CNc1nc(-c2cccnc2)nc2c(C)cc(-c3cccc(F)c3)cc12 | 5.00 to 6.00
* COc1ccc2nc(-c3cccnc3)nc(Nc3nc(-c4cccc(OC(F)(F)F)c4)cs3)c2c1 | 5.00 to 6.00
* CNC(=O)c1sc(Nc2nc(-c3cccnc3)nc3ccc(OC)cc23)nc1-c1ccccc1 | > 6.00
* COc1ccc2nc(-c3cccnc3)nc(Nc3nnc(-c4ccc(Cl)cc4)s3)c2c1 | > 6.00
* FC(F)Oc1cccc(Nc2nc(-c3ccnnc3)nc3cc(Cl)ccc23)c1 | 5.00 to 6.00
* CNc1nc(-c2cccnc2)nc2cc(-c3ccc(C)cc3)ccc12 | 5.00 to 6.00
* CNc1nc(-c2cccnc2)nc2c(C)c(-c3ccccc3)ccc12 | < 5.00
* CNc1nc(-c2cccnc2)nc2cc(-c3cccc(C(C)=O)c3)ccc12 | 5.00 to 6.00
* CNc1nc(-c2cccnc2)nc2cc(C)c(-c3ccc(F)c(F)c3)cc12 | 5.00 to 6.00
